System: CAKI-1 renal
Experiment: NCI-60 one-dose screen, 48 h
Conditions: 10 µM unless noted
This is part of a sample that, as a whole, favours compounds with a hit. Of some 83,000 tested, about 20% had one in any assay. The source made the active and inactive calls. The calls were made as follows: active = growth percent below 10; inactive = the rest.
Your response should consist of one outcome taken from active, inactive

Recorded test call requested for COc1cc(C2=NN(C(C)=O)C(c3cc(OC)c(OC)c(OC)c3)C2)ccc1O (configuration not stated)
inactive

What call does the record list for CCOC(=O)Oc1c(OC)cc(C(=O)c2ccc(OC)c(O)c2OC)cc1OC ?
inactive

Which outcome was assigned to N#C/C(=C\c1ccc(C(F)(F)F)cc1)c1cc2ccccc2[nH]1 in this test?
inactive

Each compound tested received a call. Report the one for COc1cc(C2=C(c3cn(C)c4ccccc34)COC2=O)cc(OC)c1OC .
active

Tell me the assay call for COc1cc2oc(-c3cccc(C(=O)Nc4ccccc4)c3)cc(=O)c2c(O)c1OC please.
inactive

// param item: CC(=O)[C@@H]1CC[C@]2(C(N)=O)CC[C@]3(C)[C@H](CC[C@@H]4[C@@]5(C)CCCNC(C)(C)[C@@H]5CC[C@]43C)[C@@H]12 ; yields the recorded call
inactive

Record lookup: outcome of this test for CCCCCN1C=C/C(=C\C(=O)N(C)c2ccc(OC(F)(F)F)cc2)c2ccccc21 ?
inactive

# fetch the recorded call for CCCCCCNC(=O)Oc1ccc(/C(=C(\C)c2ccccc2)c2ccc(OCCN3CCCCC3)cc2)cc1 here
inactive

Identify the outcome logged in this assay for the compound shown: Cc1cc(C)c(S(=O)(=O)Oc2ccccc2[N+](=O)[O-])c(C)c1
inactive

Assay outcome for COc1cccc(-c2cc(C(=O)Nc3ccc(/C=C/c4ccc(OC5CCN(C)CC5)cc4)cc3)ccc2OC)c1 : what was it?
inactive

Kindly provide the recorded test outcome for the following compound: COc1cc2c(-c3cc4c(cc3CNCCc3ccc5c(c3)OCO5)OCO4)cccc2c(OC)c1O
inactive

Per the assay record, what outcome was assigned to CCCC/C=N/NC(=S)NCc1ccccc1 ?
inactive

Which outcome did this test record for the compound COc1cc(C2C3=C(COC3=O)N(CCO)c3cc4c(cc32)CCC4)cc(OC)c1OC (configuration not stated) ?
inactive

Any idea what this test logged for COc1ccc(CCn2cncc2-c2c[nH]c3ccccc23)cc1 ?
inactive

Entry CN(C)CC(O)c1ccc(/C=C/c2ccc(Cl)cc2)cc1 (configuration not stated) : call = ?
active

Returns: the outcome recorded for COC(=O)/C=C1\S/C(=N\NC(=O)c2cc3ccc2/C=C\c2ccc(cc2)/C=C\3)N(c2ccccc2)C1=O in this assay.
inactive

Call for entry O=[N+]([O-])c1ccc(NC(=S)N/N=C/c2cc3ccccc3n3nnnc23)cc1 :
inactive

Write down the call the test reported for this compound. Item: C#Cc1cccc(NC(=O)c2cccc(NC(=O)CCl)c2)c1
active

Name the outcome recorded for CCOC(=O)c1ccc2c(c1)ncn2-c1ccc(NC(=O)Nc2cccc(C)c2)cc1 in the assay.
inactive

I'd appreciate the recorded outcome for N#Cc1cc(-c2nc3ccccc3s2)c(=O)n(NS(=O)(=O)c2ccccc2)c1N from this test.
inactive

Hi, do you know how N#Cc1c(NCc2ccccc2I)sc2c1CCCCC2 came out in this test?
inactive

Which outcome was entered for the compound C=C1C(=O)O[C@H]2[C@H]1CC/C(COC(=O)NCC(C)c1ccc(CC(C)C)cc1)=C\CC[C@@]1(C)O[C@@H]21 (some centres not stated) in this test?
active

# fetch the recorded call for CC(=O)c1ccc(NS(=O)(=O)c2cccc(C(=O)Nc3ccc(Br)cc3)c2)cc1 here
inactive

Query: recorded result category for Cn1c(-c2c(N)n(CCCN3CCOCC3)c3nc(C#N)c(C#N)nc23)nc2ccccc21 in this test
inactive

# outcome recorded in this test, key = O=C1/C=C/[C@@H](O)[C@@H]2C[C@@H](O)C[C@H]2/C=C/CCC[C@H](CCc2ccc3ncccc3c2)O1
active

What did this assay record as the result for CC(C)(C)[Si](C)(C)OC1[C@@H](O[Si](C)(C)C(C)(C)C)[C@@H](CNC(=O)NC(=O)CCl)O[C@H]1n1cnc2c(NC(=O)Nc3ccccc3)ncnc21 (some centres not stated) ?
inactive

I would be grateful if you could indicate the recorded call for CC(C)N1C(=O)/C(=C2\SC(=S)N(C(C)C)C2=O)SC1=S .
inactive

How was CC(C)N1C(=O)S/C(=C2/SC(=O)N(C(C)C)C2=O)C1=O classified in this test?
inactive

For COCc1cnccc1NC1CCCCCC1 , which call appears in the assay record?
inactive

Please let me know the test result on file for COc1cc(CC(=O)c2ccc(O)c(OC)c2)ccc1O .
inactive

Dear all, I need the recorded test outcome for CCN(CC)CCOc1ccc(NC(=O)C(C(C)C)N2C(=O)/C(=C/c3ccc(Br)cc3)SC2=S)cc1 (configuration not stated) , thank you.
inactive

Called result for O=C(/C(=C/c1ccc([N+](=O)[O-])cc1)SCc1ccc(F)cc1)c1ccc(F)cc1
inactive

Given COc1cc(C2C3CC4CCCC[C@H]4N3[C@@]3(C(=O)Nc4cc(Cl)ccc43)C2C(=O)c2nc3ccccc3[nH]2)cc(OC)c1OC (some centres not stated) , state the outcome it received in this test.
inactive

Please let me know the test result on file for NC1[C@H](c2c[nH]c3ccccc23)c2c([nH]c3ccccc23)[C@H]1c1c[nH]c2ccccc12 (some centres not stated) .
inactive

Fill in: this test's call for CCOC(=O)c1cc(C(=O)c2ccc(OC)cc2)n2ccc(/C=C/c3cc[n+](CC(=O)c4ccc(OC)cc4)cc3)cc12 is ___
inactive

Recorded test call requested for CC(=O)[C@@H]1CC[C@]2(CO)CC[C@]3(C)[C@H](CC[C@@H]4[C@@]5(C)CCCNC(C)(C)[C@@H]5CC[C@]43C)[C@@H]12
inactive

So what was the verdict on O=[N+]([O-])c1cc(Br)c2cccc3c2c1CC3 in this test?
inactive

* * *

System: NCI-H522 lung
Assay: NCI-60 one-dose screen, 48 h
Settings: 10 µM unless noted
The panel holds about 83,000 compounds, 20% with a hit somewhere; the sample as a whole holds those more often. Calls of active or inactive are those of the source. Rule for the calls: active = growth percent below 10; inactive = the rest.
Return exactly one item of T = active, F = inactive

How did this test come out for O=C1Nc2cc(-c3ccc(NC(=O)C4CC4)cc3)ccc2/C1=C/c1ccc[nH]1 ?
F

// return assay outcome for Cc1cccc(NC(=O)Nc2ccc(-n3cnc4cc(-c5ccc(O)cc5)ccc43)cc2)c1
T

In this assay, the call recorded for O=C(Nc1cccc(C2=NCCN2)c1)c1ccc(-c2ccc(C(=O)Nc3cccc(C4=NCCN4)c3)cc2)cc1 was what?
F

Record request — test call for COc1ccc(OC)c(-c2cc(-c3ccc(Cl)cc3)c3c(N)c(C(=O)c4ccc(Cl)cc4)sc3n2)c1
F

GET /call?item= NS(=O)(=O)c1ccc(CCN2C(=O)C3C(C2=O)C2(Cl)C(Cl)=C(Cl)C3(Cl)C2(Cl)Cl)cc1 (stereo not given) returns the recorded outcome of this test.
F

* * *

System: COLO 205 colon
Test: NCI-60 one-dose screen, 48 h (100 = growth as untreated, 0 = no growth, -100 = all killed)
Conditions: 10 µM unless noted
This is part of a sample that, as a whole, favours compounds with a hit. Of some 83,000 tested, about 20% had one in any assay.
measurementKind: growth (%)
Unit % implied. Number only.

The recorded growth for entry CN1CCN(C(=O)[C@]23CCC(C)(C)C[C@H]2C2=CC[C@@H]4[C@@]5(C)C/C(=C/c6cccnc6)C(=O)C(C)(C)[C@@H]5CC[C@@]4(C)[C@]2(C)CC3)CC1 equals 42.9

Query NC1[C@H](c2c[nH]c3ccccc23)c2c([nH]c3ccccc23)[C@H]1c1c[nH]c2ccccc12 (stereo partly drawn) yields growth of 110

# molecule COc1ccc(CNCCN2C(=O)c3ccc4c5c(ccc(c35)C2=O)C(=O)N(CCNCc2ccc(OC)c(OC)c2OC)C4=O)c(OC)c1OC ; its growth = -10.9

The reported growth of the molecule COc1ccc(C(=O)C2C(C#N)C(C#N)C3c4ccccc4C=CN23)cc1 (stereo not drawn) was 107

Record Fc1ccc2c(-c3cncn3CCc3ccccc3)c[nH]c2c1 , field growth: 101

Query c1ccc(Cn2cnc3ccc(-c4nc(-c5ccc6c(c5)ncn6C5CCCCC5)cn5ccnc45)cc32)cc1 yields growth of -29.9

Recorded growth (molecule CC(=O)Nc1cccc(-c2ccc3c(c2)NC(=O)/C3=C\c2ccc[nH]2)c1 ): 38.8

What the record says about Cc1ccc(NC(=O)Cc2ccc(/C=C/C(=O)c3ncc[nH]3)cc2)cc1 : growth is 49.2

* * *

System: HCT-15 colon
Assay: NCI-60 one-dose screen, 48 h (100 = growth as untreated, 0 = no growth, -100 = all killed)
Conditions: 10 µM unless noted
The panel holds about 83,000 compounds, 20% with a hit somewhere; the sample as a whole holds those more often.
Cut-off 80% on growth: below means 1, at or above means 0.

Lab note: growth threshold 80%. Does this compound come in strictly under it? COc1ccccc1NS(=O)(=O)c1cccc(C(=O)Nc2ccc(Br)cc2)c1
1

Hi there! Is growth for O=[N+]([O-])c1cc(Br)c2cccc3c2c1CC3 below 80%, do you know?
0

Given the entry COc1cc2c(c(OC)c1OC)CCC(c1cccc(NC(=O)c3cccc(Br)c3)c1)O2 (stereo not given) , would its reported growth be below 80%?
0

In plain terms, does O=C(/C=C(/C=C/c1csc2ccccc12)OB(F)F)/C=C/c1csc2ccccc12 come in under 80% for growth?
1
